# ASSAYED_SYSTEM: HLA-A*0206 (human)
# EXPERIMENT_DESCRIPTION: inhibition of 125I-labelled standard peptide binding to purified HLA-A*0206, gel filtration
# if value of binding affinity ratio (IC50 of standard peptide / IC50 of test peptide) reaches 0.0002, tag Met; if it stays below, tag Not met

Consider the worked cases shown below.
// query hey, is binding affinity ratio (IC50 of standard peptide / IC50 of test peptide) for this one >= 0.0002? CAGLWTGGKDT (modifications not checked) [… (Kallikrein, position 198)]
// result Not met

// query Repeat for the following binder: CALPEKPA (modifications not checked) [CALPEKPA (Kallikrein, position 234)]
// result Not met

// query Repeat for the following binder: CTGAVPLI (modifications not checked) [CTGAVPLI (Kallikrein, position 14)]
// result Met

// query Repeat for the following binder: AVPLIQSRI (modifications not checked) [… (Kallikrein, position 17)]
// result Met

// query Repeat for the following binder: CVSLHLLSNDM (modifications not checked) [… (Kallikrein, position 173)]
// result Met

Pending binder:
// query hey, is binding affinity ratio (IC50 of standard peptide / IC50 of test peptide) for this one >= 0.0002? CLKKNSQV (modifications not checked) [CLKKNSQV (Kallikrein, position 66)]
// result Not met
